Data origin, for the record: patent US9561215B2

Test system: Bak^−/−Bax^−/− MEF cells stably re-expressing Bax, Bak, or the empty vector
test-protocol: Cell death by propidium iodide exclusion in MEF cells re-expressing Bax or Bak
Assay type: cell-based
reported-conditions: rank among the six Bax activator compounds
Please respond with label 1 when measured rank by activity to induce Bax-dependent apoptosis is strictly beneath 4, and with label 0 in all other cases.

{"compound": "CCn1nc(C)c(CN2CCCC(N3CCN(c4ccc(OC)cc4)CC3)C2)c1C (stereo not drawn) [ZINC20110124]", "answer-label": "label 1"}
{"compound": "COc1ccccc1N1CCN(Cn2nc(-c3ccc(F)cc3)n(CC3CCCO3)c2=S)CC1 (stereo not drawn) [ZINC16076241]", "answer-label": "label 0"}
{"compound": "CSc1ccc(C2N=C3NCN(Cc4cccnc4)CN3c3nc4ccccc4n32)cc1 (stereo not drawn) [ZINC 13638227]", "answer-label": "label 1"}
{"compound": "COc1cccc(Cn2nc(C(=O)N3CCCC(O)C3)c3c2CCN(Cc2ccc(C)c(C)c2)C3)c1 (stereo not drawn) [compound 106]", "answer-label": "label 1"}
{"compound": "CC(C)CN1CC(OCc2cccnc2)CN(C(=O)Cc2ccc3c(c2)OCO3)CC1=O (stereo not drawn) [ZINC14531256]", "answer-label": "label 0"}
